B1: GNB5 (parent)
chain: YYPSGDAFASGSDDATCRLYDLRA

variants of: B1; assay: protein stability index of a GFP-peptide fusion (GPS, HEK-293T) (PSI 1-6); higher = more stable; conditions: c terminus: a fixed tail appended;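 also: lentivirally expressed fusions sorted by FACS into six bins by GFP to DsRed ratio, PSI derived from sequencing read proportions per bin multiplied by bin number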
Note to self: values exactly at 3 are true (1). So protein stability index at or above 3 is true (1), below is false (0).

# Mut, Category label
records = [
    ("G5W", "false (0)"),
    ("T16Y", "false (0)"),
    ("Y1T", "true (1)"),
    ("A15N", "false (0)"),
    ("P3E", "true (1)"),
    ("L22P", "false (0)"),
    ("G5P", "false (0)"),
    ("A7Y", "false (0)"),
    ("P3F", "false (0)"),
    ("Y2A", "false (0)"),
    ("Y1P", "true (1)"),
    ("R18W", "false (0)"),
    ("L19E", "true (1)"),
    ("L19G", "false (0)"),
    ("R23H", "false (0)"),
    ("D6I", "false (0)"),
    ("G11N", "false (0)"),
    ("R23M", "false (0)"),
    ("T16S", "false (0)"),
    ("R18T", "false (0)"),
    ("A9E", "true (1)"),
    ("G11E", "false (0)"),
    ("R23K", "false (0)"),
    ("D6S", "false (0)"),
    ("S10T", "false (0)"),
    ("G11V", "false (0)"),
    ("R18Y", "false (0)"),
    ("Y1G", "true (1)"),
    ("F8R", "true (1)"),
    ("A9T", "false (0)"),
    ("D21S", "false (0)"),
    ("S10F", "false (0)"),
    ("R23E", "true (1)"),
    ("P3R", "false (0)"),
    ("P3N", "true (1)"),
    ("A15E", "false (0)"),
    ("P3K", "false (0)"),
    ("L19S", "false (0)"),
    ("L19W", "false (0)"),
    ("F8Q", "true (1)"),
    ("D14M", "false (0)"),
    ("G5L", "false (0)"),
    ("S10Y", "false (0)"),
    ("F8K", "true (1)"),
    ("A15F", "false (0)"),
]
